Provenance of the data: patent US20120237528A1

Listing of recorded kon by entry.
- Study System: T1, recombinant extracellular domain (ECD) of human TF, amino acid 1-219 of the mature chain, C-terminal His6-tag (human, UniProt P13726 33-251)
- T1 construct: expressed in a mammalian system; used for ELISA and Biacore; biotinylated by NHS-ester for the Fab ELISA; also called His6-TF-ECD1-219; HumanTF1-219
- Run Description: Biacore
Property Measured: kon (M⁻¹ s⁻¹)

>>> numeric_readout("M52 (antibody, V domains shown, complete MAb; FR4 is its own entry; also called H21/L3) VH: EVQLVQSGAEVKKPGATVKISCKVSGYTFITYWIEWVQQAPGKGLEWMGDILPGSGSTNYNENFKGRVTITADTSTDTAYMELSSLRSEDTAVYYCATSGYYGNSGFAYWGQGTLVTVSS VL: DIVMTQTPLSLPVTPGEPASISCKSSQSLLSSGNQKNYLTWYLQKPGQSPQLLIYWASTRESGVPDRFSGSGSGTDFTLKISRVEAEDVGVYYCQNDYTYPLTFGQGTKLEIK")
74000
>>> numeric_readout("M1602 (antibody, V domains shown, complete MAb; FR4 is its own entry; also called H106/L3) VH: EVQLVQSGAEVKKPGESLRISCKGSGYTFDAHWIEWVRQMPGKGLEWMGDILPGSGFTDYSPSFQGHVTISADKSISTAYLQWSSLKASDTAMYYCARSGYYGNSGFAYWGQGTLVTVSS VL: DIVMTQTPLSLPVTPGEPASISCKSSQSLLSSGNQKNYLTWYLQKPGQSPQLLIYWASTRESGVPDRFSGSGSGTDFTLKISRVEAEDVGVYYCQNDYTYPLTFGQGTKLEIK")
132000
>>> numeric_readout("M1611 (antibody, V domains shown, complete MAb; FR4 is its own entry; also called H128/L3) VH: EVQLVQSGAEVKKPGESLRISCKGSGYTFGPYWIEWVRQMPGKGLEWMGDILPGSGYTTYSPSFQGHVTISADKSISTAYLQWSSLKASDTAMYYCARSGYYGNSGFAYWGQGTLVTVSS VL: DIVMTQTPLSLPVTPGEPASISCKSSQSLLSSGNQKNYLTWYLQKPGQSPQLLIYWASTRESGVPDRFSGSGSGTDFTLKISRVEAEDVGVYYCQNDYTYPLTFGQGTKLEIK")
192000
>>> numeric_readout("M1594 (antibody, V domains shown, complete MAb; FR4 is its own entry; also called H158/L3) VH: EVQLVQSGAEVKKPGESLRISCKGSGYTFPPYWIEWVRQMPGKGLEWMGDILPGTGYTVYSPSFQGHVTISADKSISTAYLQWSSLKASDTAMYYCARSGYYGNSGFAYWGQGTLVTVSS VL: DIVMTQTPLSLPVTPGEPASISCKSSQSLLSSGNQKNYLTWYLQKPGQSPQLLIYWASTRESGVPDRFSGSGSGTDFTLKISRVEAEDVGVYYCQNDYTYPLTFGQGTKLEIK")
124000
>>> numeric_readout("M1601 (antibody, V domains shown, complete MAb; FR4 is its own entry; also called H105/L3) VH: EVQLVQSGAEVKKPGESLRISCKGSGYTFGPYWIEWVRQMPGKGLEWMGDILPGTGYTVYSPSFQGHVTISADKSISTAYLQWSSLKASDTAMYYCARSGYYGNSGFAYWGQGTLVTVSS VL: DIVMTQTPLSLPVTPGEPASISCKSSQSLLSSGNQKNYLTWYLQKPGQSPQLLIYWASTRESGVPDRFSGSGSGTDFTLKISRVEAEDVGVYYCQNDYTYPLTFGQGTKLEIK")
137000
